Recorded values, source ChEMBL document CHEMBL1126099.

# TESTED SYSTEM: Sigma non-opioid intracellular receptor 1 (Rattus norvegicus, UniProt Q9R0C9)
# Sequence (Q9R0C9 whole entry): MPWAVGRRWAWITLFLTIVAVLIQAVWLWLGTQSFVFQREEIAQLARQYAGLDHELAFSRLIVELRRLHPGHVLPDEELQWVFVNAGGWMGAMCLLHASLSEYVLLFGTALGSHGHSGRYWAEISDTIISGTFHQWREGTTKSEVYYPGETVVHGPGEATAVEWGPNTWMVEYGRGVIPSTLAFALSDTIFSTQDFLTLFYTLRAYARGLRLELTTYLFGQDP
# PROTOCOL DETAILS: Displacement of (+)-[3H]-3-PPP from rat cortical sigma site

COMPOUND	IC50
NC(CCCN1CCN(c2ncc(F)cn2)CC1)c1ccc(F)cc1 (stereo not given)	~1000 nM
CC(O)(CCCN1CCN(c2ncc(F)cn2)CC1)c1ccc(F)cc1 (stereo not given)	110 nM
CSc1nc(N2CCN(CCCC(=O)c3ccc(F)cc3)CC2)ncc1F	120 nM
OC(CCCN1CCN(c2ncccn2)CC1)c1ccc(F)cc1 (stereo not given)	130 nM
O=C(CCCN1CCN(c2ncc(Br)cn2)CC1)c1ccc(F)cc1	85 nM
OC(CCCN1CCN(c2ncc(Br)cn2)CC1)c1ccc(F)cc1 (stereo not given)	26 nM
Fc1ccc(/C=C(\CCN2CCN(c3ncc(F)cn3)CC2)c2ccc(F)cc2)cc1	> 1000 nM
O/N=C(\CCCN1CCN(c2ncc(F)cn2)CC1)c1ccc(F)cc1	81 nM
Oc1nc(N2CCN(CCCC(O)c3ccc(F)cc3)CC2)ncc1F (stereo not given)	> 1000 nM
O=C(CCCN1CCN(c2ncc(F)cn2)CC1)c1ccc(F)cc1	130 nM
